Measured On: EED (1-441)-His protein (Homo sapiens)
Construct: 20 nM EED (1-441)-His protein
Protocol Details: EED-H3K27Me3 peptide competition binding assay by AlphaScreen
Test Parameters: Table 4A, read-out: Alpha screen
pIC50: −log10 of the molar value.
Reported Metric: pIC50

| Molecule | pIC50 |
| --- | --- |
| Cc1ccc2c(n1)CNC(=O)c1ncn3c(NCc4c(F)ccc5c4CCO5)ncc-2c13 [Compound 21] | 9.26 |
| Cc1nc2c(s1)-c1cnc(NCc3c(F)ccc4c3CCO4)n3cnc(c13)C(=O)N(C1CC1)C2 [Compound 86] | 8.59 |
| O=C1NCc2nc(C(F)(F)F)ccc2-c2cnc(NCc3c(F)ccc4c3CCO4)n3cnc1c23 [Compound 25] | 8.48 |
| CN1Cc2ccc(C(F)(F)F)nc2-c2cnc(NCc3c(F)ccc4c3CCO4)n3cnc(c23)C1=O [Compound 39] | 7.58 |
| CC(C)(O)CN1Cc2cc(C(F)(F)F)ncc2-c2cnc(NCc3c(F)ccc4c3CCO4)n3cnc(c23)C1=O [Compound 48] | 8.78 |

I = O=C1OCc2ccccc2-c2cnc(NCc3c(F)ccc4c3CCO4)n3cnc1c23 [Compound 6]
II = O=C1c2ncn3c(NCc4c(F)ccc5c4CCO5)ncc(c23)-c2ccc(C(F)(F)F)cc2CN1CC(F)F [Compound 81]
Lookup: Which value of pIC50 is smaller, the one for I or the one for II ? Indicate your choice by writing its label.
Found: II
(II: 8.77, I: 9.72)

###

Measured On: EED (1-441)-His protein (Homo sapiens, UniProt O75530)
Construct: 20 nM EED (1-441)-His protein
Sequence (O75530 whole entry): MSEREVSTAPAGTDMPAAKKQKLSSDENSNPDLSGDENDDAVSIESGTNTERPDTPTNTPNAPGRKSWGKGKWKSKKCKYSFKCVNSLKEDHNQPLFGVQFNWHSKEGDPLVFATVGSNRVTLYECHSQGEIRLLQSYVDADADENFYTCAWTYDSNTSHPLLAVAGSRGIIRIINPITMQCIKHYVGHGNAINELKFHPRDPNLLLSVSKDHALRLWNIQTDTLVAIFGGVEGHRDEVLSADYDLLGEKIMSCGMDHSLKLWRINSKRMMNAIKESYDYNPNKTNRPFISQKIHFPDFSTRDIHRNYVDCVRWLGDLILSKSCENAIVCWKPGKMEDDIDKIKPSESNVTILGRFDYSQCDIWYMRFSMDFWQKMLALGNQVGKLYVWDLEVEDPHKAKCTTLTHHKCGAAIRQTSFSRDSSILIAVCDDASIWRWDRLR
Protocol Details: EED-H3K27Me3 peptide competition binding assay by AlphaScreen
Test Parameters: Table 4A, read-out: Alpha screen
pIC50: −log10 of the molar value.
Reported Metric: pIC50

Would you please look over these solved cases?
| Compound | Measured On | pIC50 |
| --- | --- | --- |
| O=C1OCc2ncc(C(F)(F)F)cc2-c2cnc(NCc3c(F)ccc4c3CCO4)n3cnc1c23 | EED (1-441)-His protein (Homo sapiens, UniProt O75530) | 8.69 |
| CC1(O)CC(CN2Cc3nc(C(F)(F)F)ccc3-c3cnc(NCc4c(F)ccc5c4CCO5)n4cnc(c34)C2=O)C1 (stereo not shown) | EED (1-441)-His protein (Homo sapiens, UniProt O75530) | 9.04 |
| O=C1OCc2cc(C(F)(F)F)ncc2-c2cnc(NCc3c(F)ccc4c3CCO4)n3cnc1c23 | EED (1-441)-His protein (Homo sapiens, UniProt O75530) | 8.96 |

I = Cc1ccc2c(n1)CS(=O)(=O)c1ncn3c(NCc4c(F)ccc5c4CCO5)ncc-2c13
II = O=C1c2ncn3c(NCc4c(F)ccc5c4CCO5)ncc(c23)-c2ccc(C(F)(F)F)nc2CN1CC1CCOC1 (stereo not shown)
III = O=C1OCc2ncccc2-c2cnc(NCc3c(F)ccc4c3CCO4)n3cnc1c23
Lookup: Would you mind ranking these compounds by ascending pIC50? The reply should contain the labels ordered as requested.
Found: I, II, III
